TGT: PTHR1 receptor
Sequence (P25961 whole entry): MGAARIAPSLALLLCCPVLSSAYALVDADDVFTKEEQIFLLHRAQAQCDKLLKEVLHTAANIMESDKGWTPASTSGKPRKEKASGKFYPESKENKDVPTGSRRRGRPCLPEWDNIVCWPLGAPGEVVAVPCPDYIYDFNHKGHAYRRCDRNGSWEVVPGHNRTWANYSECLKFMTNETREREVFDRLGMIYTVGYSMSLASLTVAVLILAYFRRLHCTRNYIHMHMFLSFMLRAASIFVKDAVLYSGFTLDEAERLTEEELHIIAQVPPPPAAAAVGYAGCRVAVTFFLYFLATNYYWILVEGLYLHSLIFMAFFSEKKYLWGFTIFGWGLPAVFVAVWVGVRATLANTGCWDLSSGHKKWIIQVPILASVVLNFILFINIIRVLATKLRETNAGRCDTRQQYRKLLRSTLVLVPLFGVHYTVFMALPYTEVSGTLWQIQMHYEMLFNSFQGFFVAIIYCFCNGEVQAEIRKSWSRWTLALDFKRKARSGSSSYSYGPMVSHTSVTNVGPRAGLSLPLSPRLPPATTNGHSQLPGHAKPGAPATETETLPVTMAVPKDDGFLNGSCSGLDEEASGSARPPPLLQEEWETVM
* marks the point of attachment. Palmitoyl = CCCCCCCCCCCCCCCC(=O)*
REPORTED_PROPERTY: Inhibition of Maximal Response

For orientation, consider the following solved cases.
BINDER	Inhibition of Maximal Response
Palmitoyl-GGYFRRLHSTRNYIH-NH2 (SMILES CCCCCCCCCCCCCCCC(=O)NCC(=O)NCC(=O)N[C@@H](Cc1ccc(O)cc1)C(=O)N[C@@H](Cc1ccccc1)C(=O)N[C@@H](CCCNC(=N)N)C(=O)N[C@@H](CCCNC(=N)N)C(=O)N[C@@H](CC(C)C)C(=O)N[C@@H](Cc1c[nH]cn1)C(=O)N[C@@H](CO)C(=O)N[C@H](C(=O)N[C@@H](CCCNC(=N)N)C(=O)N[C@@H](CC(N)=O)C(=O)N[C@@H](Cc1ccc(O)cc1)C(=O)N[C@H](C(=O)N[C@@H](Cc1c[nH]cn1)C(N)=O)[C@@H](C)CC)[C@@H](C)O) [Compound 13]	29.2%
Palmitoyl-AGRSDTRQQYRKLLKS-NH2 (SMILES CCCCCCCCCCCCCCCC(=O)N[C@@H](C)C(=O)NCC(=O)N[C@@H](CCCNC(=N)N)C(=O)N[C@@H](CO)C(=O)N[C@@H](CC(=O)O)C(=O)N[C@H](C(=O)N[C@@H](CCCNC(=N)N)C(=O)N[C@@H](CCC(N)=O)C(=O)N[C@@H](CCC(N)=O)C(=O)N[C@@H](Cc1ccc(O)cc1)C(=O)N[C@@H](CCCNC(=N)N)C(=O)N[C@@H](CCCCN)C(=O)N[C@@H](CC(C)C)C(=O)N[C@@H](CC(C)C)C(=O)N[C@@H](CCCCN)C(=O)N[C@@H](CO)C(N)=O)[C@@H](C)O) [Compound 65]	-0.359
Palmitoyl-TNAGRSDTRQAYRKLL-NH2 (SMILES CCCCCCCCCCCCCCCC(=O)N[C@H](C(=O)N[C@@H](CC(N)=O)C(=O)N[C@@H](C)C(=O)NCC(=O)N[C@@H](CCCNC(=N)N)C(=O)N[C@@H](CO)C(=O)N[C@@H](CC(=O)O)C(=O)N[C@H](C(=O)N[C@@H](CCCNC(=N)N)C(=O)N[C@@H](CCC(N)=O)C(=O)N[C@@H](C)C(=O)N[C@@H](Cc1ccc(O)cc1)C(=O)N[C@@H](CCCNC(=N)N)C(=O)N[C@@H](CCCCN)C(=O)N[C@@H](CC(C)C)C(=O)N[C@@H](CC(C)C)C(N)=O)[C@@H](C)O)[C@@H](C)O) [Compound 93]	-67%

Could you now consider this next binder?
Ask: Check the records and state Inhibition of Maximal Response for Palmitoyl-GSYFRRLHSTRNYIH-NH2 (SMILES CCCCCCCCCCCCCCCC(=O)NCC(=O)N[C@@H](CO)C(=O)N[C@@H](Cc1ccc(O)cc1)C(=O)N[C@@H](Cc1ccccc1)C(=O)N[C@@H](CCCNC(=N)N)C(=O)N[C@@H](CCCNC(=N)N)C(=O)N[C@@H](CC(C)C)C(=O)N[C@@H](Cc1c[nH]cn1)C(=O)N[C@@H](CO)C(=O)N[C@H](C(=O)N[C@@H](CCCNC(=N)N)C(=O)N[C@@H](CC(N)=O)C(=O)N[C@@H](Cc1ccc(O)cc1)C(=O)N[C@H](C(=O)N[C@@H](Cc1c[nH]cn1)C(N)=O)[C@@H](C)CC)[C@@H](C)O) [Compound 11]
Reply: 19.8%
